Each recorded value in this set is attributed to patent US8067454B2.

system: RPMI-8226; experiment: NCI 60-cell drug screen, Leukemia RPMI-8226; type: cell-based, human; conditions: 1.00E−5 Molar
We use 70% as the dividing line for Growth Percent, RPMI-8226: on or above the line is 1, below is -1.

input: Hi team, for CN(C)CCCSc1nc2ccc3c(c2[nH]1)C(=O)c1ccccc1C3=O , is the recorded Growth Percent, RPMI-8226 at or above 70%?
output: -1

input: Ok, now O=C1c2ccccc2C(=O)c2c1ccc1nc(S)[nH]c21
output: 1

input: Next: O=C1c2ccccc2C(=O)c2c1ccc1nc(SCCN3CCCC3)[nH]c21
output: -1

input: What do you get for CCSc1nc2ccc3c(c2[nH]1)C(=O)c1ccccc1C3=O ?
output: -1

* * *

test system: GBM8401; experiment: MTT assay, GBM8401 tumor cell; settings: concentration 10 μM, tumor cell
Provide the reported Cell survival rate (%) GBM8401 of each item.
Number first, unit second: that is the form wanted.

input: Need Cell survival rate (%) GBM8401, item O=C1c2ccccc2C(=O)c2c1ccc1nc(SCCCCCCCl)[nH]c21
output: 78 ± 5%

input: What about this compound? O=C1c2ccccc2C(=O)c2c1ccc1nc(SCCN3CCCC3)[nH]c21
output: 78 ± 10%

input: Also need O=C1c2ccccc2C(=O)c2c1ccc1nc(SCCCCCl)[nH]c21 , thanks.
output: 43 ± 10%

input: What do you get for COC(=O)CCCSc1nc2ccc3c(c2[nH]1)C(=O)c1ccccc1C3=O ?
output: 70 ± 10%

input: How about C#CCSc1nc2ccc3c(c2[nH]1)C(=O)c1ccccc1C3=O ?
output: 38 ± 10%

* * *

What Growth Percent, SF-295 was measured for each of the following?
tested on: SF-295; assay: NCI 60-cell drug screen, CNS Cancer SF-295; assay type: cell-based, human; conditions: 1.00E−5 Molar
Value expressed in %; do not type the unit.

input: Which Growth Percent, SF-295 value belongs to O=C1c2ccccc2C(=O)c2c1ccc1nc(S)[nH]c21 [f1-0] ?
output: 118.09

input: Now this one: CCSc1nc2ccc3c(c2[nH]1)C(=O)c1ccccc1C3=O [f1-1]
output: 100.85

input: Now consider CN(C)CCCSc1nc2ccc3c(c2[nH]1)C(=O)c1ccccc1C3=O [f1-15] and answer again.
output: 76.03

input: Please give the result for CCCSc1nc2ccc3c(c2[nH]1)C(=O)c1ccccc1C3=O [f1-2] too.
output: 37.25

input: Note, next up: O=C1c2ccccc2C(=O)c2c1ccc1nc3n(c21)CCS3 [f3-1]
output: 78.56

input: How about this compound: O=C1c2ccccc2C(=O)c2c1ccc1nc(SCCN3CCCC3)[nH]c21 [f1-11]
output: 76.91
